Reference source for all entries: patent US20190367592A1

biological target: T1, recombinant human Tau monomer, 2N4R isoform (amino acids 2-441) (human, UniProt P10636-8 2-441); assay: SPR screen, hIgG captured, Tau monomer analyte
T1 construct: range 2-441; N-terminal His-tag removed with TEV protease; also called monomeric Tau
T1 sequence (P10636 other isoform, or with tags, fused parts or gaps limits assumed): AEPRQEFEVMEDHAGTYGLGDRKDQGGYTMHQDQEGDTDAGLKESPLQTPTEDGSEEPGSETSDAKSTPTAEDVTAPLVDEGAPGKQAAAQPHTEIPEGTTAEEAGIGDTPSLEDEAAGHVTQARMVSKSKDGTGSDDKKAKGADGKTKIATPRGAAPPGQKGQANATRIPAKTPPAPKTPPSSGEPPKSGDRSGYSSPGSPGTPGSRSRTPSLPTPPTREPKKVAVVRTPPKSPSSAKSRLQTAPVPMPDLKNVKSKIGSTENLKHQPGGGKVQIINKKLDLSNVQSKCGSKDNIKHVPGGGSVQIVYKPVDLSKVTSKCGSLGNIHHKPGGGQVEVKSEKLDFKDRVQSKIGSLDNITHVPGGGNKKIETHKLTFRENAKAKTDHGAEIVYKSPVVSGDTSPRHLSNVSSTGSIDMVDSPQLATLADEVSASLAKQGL
pKd: −log10 of the molar value.
Listing of recorded pKd by entry.
measure: pKd

binder	measure	observed
hu94B2 HC4 + LC9 (antibody, V domains shown) VH: EVQLVQSGAEVKKPGASVKVSCKASGYSLTGYTMNWVRQAPGQGLEWIGLISPYNGVTSYNQKFKGRATLTRDKSTSTAYLELSSLRSEDTAVYYCARQGAYWGQGTLVTVSS VL: DVVMTQTPLSLPVTPGQPASISCKSSQSLLDSDGKTYLNWLLQKPGQSPQRLIYLVSKLDSGVPDRFSGSGSGTDFTLKISRVEAEDVGVYYCWQGTHFPWTFGQGTKVEIK	pKd	7.21
hu94B2 HC6 + LC15 (antibody, V domains shown) VH: EVQLVQSGAEVKKPGASVKVSCKASGYSLTGYTMNWVRQAPGQGLEWIGLISPYNGVTSYNQKFKGRVTITVDKSTSTAYLELSSLRSEDTAVYYCARQGAYWGQGTLVTVSS VL: DIVMTQTPLSLPVTPGQPASISCKSSQSLLDSDGKTYLNWYLQKPGQSPQRLIYLVSKLDSGVPDRFSGSGSGTDFTLKISRVEAEDVGVYYCWQGTHFPWTFGQGTKVEIK	pKd	7.13
hu94B2 HC8 + LC9 (antibody, V domains shown) VH: EVQLVQSGAEVKKPGASVKVSCKASGYSLTGYTMNWVRQAPGQGLEWIGLISPYNGVTSYNQKFKGRVTITVDTSTSTAYLELSSLRSEDTAVYYCARQGAYWGQGTLVTVSS VL: DVVMTQTPLSLPVTPGQPASISCKSSQSLLDSDGKTYLNWLLQKPGQSPQRLIYLVSKLDSGVPDRFSGSGSGTDFTLKISRVEAEDVGVYYCWQGTHFPWTFGQGTKVEIK	pKd	9.00
hu94B2 HC8 + LC11 (antibody, V domains shown) VH: EVQLVQSGAEVKKPGASVKVSCKASGYSLTGYTMNWVRQAPGQGLEWIGLISPYNGVTSYNQKFKGRVTITVDTSTSTAYLELSSLRSEDTAVYYCARQGAYWGQGTLVTVSS VL: DVVMTQTPLSLPVTPGQPASISCKSSQSLLDSDGKTYLNWYLQKPGQSPQRLIYLVSKLDSGVPDRFSGSGSGTDFTLKISRVEAEDVGVYYCWQGTHFPWTFGQGTKVEIK	pKd	7.35
hu94B2 HC8 + LC15 (antibody, V domains shown) VH: EVQLVQSGAEVKKPGASVKVSCKASGYSLTGYTMNWVRQAPGQGLEWIGLISPYNGVTSYNQKFKGRVTITVDTSTSTAYLELSSLRSEDTAVYYCARQGAYWGQGTLVTVSS VL: DIVMTQTPLSLPVTPGQPASISCKSSQSLLDSDGKTYLNWYLQKPGQSPQRLIYLVSKLDSGVPDRFSGSGSGTDFTLKISRVEAEDVGVYYCWQGTHFPWTFGQGTKVEIK	pKd	7.29
hu94B2 HC3 + LC15 (antibody, V domains shown) VH: EVQLVQSGAEVKKPGASVKVSCKASGYSLTGYTMNWVRQAPGQGLEWIGLISPYNGVTSYNQKFKGRATITVDKSTSTAYLELSSLRSEDTAVYYCARQGAYWGQGTLVTVSS VL: DIVMTQTPLSLPVTPGQPASISCKSSQSLLDSDGKTYLNWYLQKPGQSPQRLIYLVSKLDSGVPDRFSGSGSGTDFTLKISRVEAEDVGVYYCWQGTHFPWTFGQGTKVEIK	pKd	7.19
hu94B2 HC1 + LC11 (antibody, V domains shown) VH: EVQLVQSGAEVKKPGASVKVSCKASGYSLTGYTMNWVRQAPGQGLEWIGLISPYNGVTSYNQKFKGRATLTVDKSTSTAYLELSSLRSEDTAVYYCARQGAYWGQGTLVTVSS VL: DVVMTQTPLSLPVTPGQPASISCKSSQSLLDSDGKTYLNWYLQKPGQSPQRLIYLVSKLDSGVPDRFSGSGSGTDFTLKISRVEAEDVGVYYCWQGTHFPWTFGQGTKVEIK	pKd	7.04
hu94B2 HC6 + LC13 (antibody, V domains shown) VH: EVQLVQSGAEVKKPGASVKVSCKASGYSLTGYTMNWVRQAPGQGLEWIGLISPYNGVTSYNQKFKGRVTITVDKSTSTAYLELSSLRSEDTAVYYCARQGAYWGQGTLVTVSS VL: DIVMTQTPLSLPVTPGQPASISCKSSQSLLDSDGKTYLNWLLQKPGQSPQRLIYLVSKLDSGVPDRFSGSGSGTDFTLKISRVEAEDVGVYYCWQGTHFPWTFGQGTKVEIK	pKd	8.52
hu94B2 HC3 + LC13 (antibody, V domains shown) VH: EVQLVQSGAEVKKPGASVKVSCKASGYSLTGYTMNWVRQAPGQGLEWIGLISPYNGVTSYNQKFKGRATITVDKSTSTAYLELSSLRSEDTAVYYCARQGAYWGQGTLVTVSS VL: DIVMTQTPLSLPVTPGQPASISCKSSQSLLDSDGKTYLNWLLQKPGQSPQRLIYLVSKLDSGVPDRFSGSGSGTDFTLKISRVEAEDVGVYYCWQGTHFPWTFGQGTKVEIK	pKd	8.42
hu94B2 HC2 + LC15 (antibody, V domains shown) VH: EVQLVQSGAEVKKPGASVKVSCKASGYSLTGYTMNWVRQAPGQGLEWIGLISPYNGVTSYNQKFKGRVTLTVDKSTSTAYLELSSLRSEDTAVYYCARQGAYWGQGTLVTVSS VL: DIVMTQTPLSLPVTPGQPASISCKSSQSLLDSDGKTYLNWYLQKPGQSPQRLIYLVSKLDSGVPDRFSGSGSGTDFTLKISRVEAEDVGVYYCWQGTHFPWTFGQGTKVEIK	pKd	7.00
